Target System: T1, human CD33 extracellular domain (human, UniProt P20138 18-259)
T1 construct: soluble monomeric ECD; also called human CD33 ECD; hCD33
Assay: SPR, Fab captured, 37C;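 also: Anti-CD33 Fabs captured on anti-Fab chip, soluble monomeric CD33 or its domains flowed over at several concentrations, double-referenced data fitted 1:1, Kd taken as koff/kon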
Observable: Kd (nM)
Just the number please, in nM, no unit attached.

Supply measured Kd of ADI-11809 Fab (Fab, V domains shown, Fab fragment; also called Ab6) VH: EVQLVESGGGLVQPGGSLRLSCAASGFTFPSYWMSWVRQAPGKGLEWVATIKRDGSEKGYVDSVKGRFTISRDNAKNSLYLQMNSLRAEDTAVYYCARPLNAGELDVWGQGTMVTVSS VL: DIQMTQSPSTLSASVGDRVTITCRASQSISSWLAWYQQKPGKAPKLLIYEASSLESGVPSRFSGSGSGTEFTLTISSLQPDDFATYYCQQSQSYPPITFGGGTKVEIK in your reply.
0.0012

Recall and state the measured Kd for ADI-11815 Fab (Fab, V domains shown, Fab fragment; also called Ab7) VH: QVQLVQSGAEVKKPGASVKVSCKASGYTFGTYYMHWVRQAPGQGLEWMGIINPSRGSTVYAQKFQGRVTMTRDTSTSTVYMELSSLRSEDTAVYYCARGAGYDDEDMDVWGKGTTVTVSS VL: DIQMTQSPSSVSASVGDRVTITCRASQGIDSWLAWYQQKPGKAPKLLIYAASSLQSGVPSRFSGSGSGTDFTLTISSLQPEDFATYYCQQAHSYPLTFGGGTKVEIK .
0.23

Retrieve Kd measured for ADI-11812 Fab (Fab, V domains shown, Fab fragment; also called Ab24) VH: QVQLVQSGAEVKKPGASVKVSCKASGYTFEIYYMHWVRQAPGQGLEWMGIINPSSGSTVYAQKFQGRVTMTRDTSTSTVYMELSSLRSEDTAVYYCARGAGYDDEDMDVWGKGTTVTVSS VL: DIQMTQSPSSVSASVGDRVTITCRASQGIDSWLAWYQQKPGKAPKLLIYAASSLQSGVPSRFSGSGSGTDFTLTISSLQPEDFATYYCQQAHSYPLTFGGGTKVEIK and print it.
1.23

Give the reported value of Kd for this record: ADI-11828 Fab (Fab, V domains shown, Fab fragment; also called Ab27) VH: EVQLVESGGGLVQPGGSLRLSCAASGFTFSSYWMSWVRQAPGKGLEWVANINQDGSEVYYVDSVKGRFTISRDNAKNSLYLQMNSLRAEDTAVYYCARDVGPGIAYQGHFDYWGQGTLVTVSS VL: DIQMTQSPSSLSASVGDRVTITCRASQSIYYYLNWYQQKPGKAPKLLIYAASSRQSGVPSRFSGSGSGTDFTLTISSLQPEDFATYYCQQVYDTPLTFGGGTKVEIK
2.67

Report measured Kd; entry is ADI-11776 Fab (Fab, V domains shown, Fab fragment; also called Ab3; H76) VH: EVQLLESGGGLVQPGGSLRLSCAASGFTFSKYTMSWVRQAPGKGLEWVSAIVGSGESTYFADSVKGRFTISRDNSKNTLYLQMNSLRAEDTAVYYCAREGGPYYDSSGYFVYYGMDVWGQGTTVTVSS VL: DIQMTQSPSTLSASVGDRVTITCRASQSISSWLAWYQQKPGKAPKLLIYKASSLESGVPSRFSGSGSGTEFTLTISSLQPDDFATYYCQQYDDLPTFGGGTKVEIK
0.78
